Data origin: patent US8575156B2

# TESTED SYSTEM: 11β-HSD1 (Homo sapiens)
# Sequence (P28845 whole entry): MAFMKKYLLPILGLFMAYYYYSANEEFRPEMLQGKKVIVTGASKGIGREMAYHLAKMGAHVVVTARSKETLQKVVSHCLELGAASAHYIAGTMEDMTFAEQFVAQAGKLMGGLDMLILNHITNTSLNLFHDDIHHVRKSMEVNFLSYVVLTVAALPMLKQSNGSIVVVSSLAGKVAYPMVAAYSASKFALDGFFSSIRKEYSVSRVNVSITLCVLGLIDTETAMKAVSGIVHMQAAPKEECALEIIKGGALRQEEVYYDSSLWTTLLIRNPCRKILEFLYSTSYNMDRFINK
# ASSAY PROCEDURE: biochemical
# TEST CONDITIONS: read-out: Average % inhibition at 100 nM, Biological Test Example 1; 100 nM
Class membership depends on inhibition at 0.1 µM alone; the intervals are low: < 70%; medium: ≥ 70% and < 90%; high: ≥ 90%

Some solved entries appear below for comparison.
{"COMPOUND": "Cc1ccc([C@H](C)N2CC[C@](CCC(N)=O)(c3ccccc3)OC2=O)cc1", "CLASS ASSIGNMENT": "high"}
{"COMPOUND": "C[C@@H](c1ccc(-c2ccc(F)cc2)cc1)N1CC[C@](CCNCCF)(c2ccc(F)cc2)OC1=O", "CLASS ASSIGNMENT": "medium"}
{"COMPOUND": "C[C@@H](c1ccc(Br)cc1)N1CC[C@](CC(C)(C)CNS(C)(=O)=O)(c2ccc(F)cc2)OC1=O", "CLASS ASSIGNMENT": "medium"}
{"COMPOUND": "C[C@@H](c1ccc(F)cc1)N1CC[C@](CCCO)(c2ccccc2)OC1=O", "CLASS ASSIGNMENT": "high"}
{"COMPOUND": "Cc1nnc(C[C@]2(c3ccccc3)CCN([C@@H](C)c3ccc(Br)cc3)C(=O)O2)o1", "CLASS ASSIGNMENT": "medium"}

Exam item: assign CC(C)(C)OC(=O)N1CCC[C@H](N2CC[C@](CCC(N)=O)(c3ccc(F)cc3)OC2=O)C1 to the correct category. low

Which band does C[C@@H](c1ccc(Cl)cc1)N1CC[C@](CCO)(c2ccccc2)OC1=O fall in? high

Each compound maps to one class by inhibition at 0.1 µM. Which class for C[C@@H](c1ccc(F)cc1)N1CC[C@](CCC(C)(C)O)(c2ccc(F)cc2)OC1=O ? low

Into which category would you place C[C@@H](c1ccc(-c2ccc(F)cc2)cc1)N1CC[C@](CCN2CC[C@@H](F)C2)(c2ccc(F)cc2)OC1=O ? low

Place this compound in its band: CC(C[C@]1(c2ccc(F)cc2)CCN([C@@H](C)c2ccc(Br)cc2)C(=O)O1)C(N)=O (single isomer, unassigned) [EXAMPLE 523 Isomer 1] high

Please indicate the class for C[C@@H](c1ccc(C(F)(F)F)cc1)N1CC[C@](CC(C)(C)O)(c2ccccc2)OC1=O based on its inhibition at 0.1 µM. high

In plain terms, what class is Cc1ccc([C@H](C)N2CC[C@](CCCO)(c3ccc(F)cc3)OC2=O)cn1 ? low

Returns: class label. Input: C[C@@H](c1ccc(-c2ccccc2)cc1)N1CC[C@](CCCO)(c2ccccc2)OC1=O high

# classify by inhibition at 0.1 µM band: Cc1nnc(C[C@]2(c3ccccc3)CCN([C@@H](C)c3ccc(Br)cc3)C(=O)O2)s1 medium

Which inhibition at 0.1 µM category applies to C[C@@H](c1ccc(Br)cc1)N1CC[C@@](CCC(N)=O)(c2ccc(F)cc2F)OC1=O (single isomer, unassigned) [EXAMPLE 504 Isomer 1] here? low

Lab log: C[C@@H](c1ccc(Cl)c(F)c1)N1CC[C@](CCCNS(C)(=O)=O)(c2ccc(F)cc2)OC1=O — assign inhibition at 0.1 µM category high

====

# TESTED SYSTEM: 11β-HSD1 (Homo sapiens)
# ASSAY PROCEDURE: biochemical
# TEST CONDITIONS: read-out: Average % inhibition at 111.1 nM, Biological Test Example 1; 111.1 nM compound
Entry flag: 1 if inhibition at 0.1111 µM reaches 60%; 0 if it does not.

Quick check, inhibition at 0.1111 µM >= 60%? COc1ccc([C@H](C)N2CCC(C)(c3ccccc3)OC2=O)cc1 (stereo partly drawn) [EXAMPLE 85] 1

// inclusive: inhibition at 0.1111 µM at least 60%? input: CC1(c2ccccc2)CCN(c2cccc(-c3cccs3)c2)C(=O)O1 (stereo not drawn) 1

Check this compound for inhibition at 0.1111 µM at or above 60%: Cc1ccccc1C1(C)CCN([C@@H](C)c2ccccc2)C(=O)O1 (stereo partly drawn) [EXAMPLE 86] 1

Decide: inhibition at 0.1111 µM of O=C1OC(CCO)(c2ccccc2)CCN1c1ccc(F)c(-c2ccc(F)cc2)c1 (stereo not drawn) >= 60%? 1

Threshold query (inhibition at 0.1111 µM >= 60%) on O=C1OC(CCO)(c2ccccc2)CCN1c1ccc(F)c(-c2ccc(F)cc2Cl)c1 (stereo not drawn) 1

Hello, I need to know if C=CC1(c2ccc(F)cc2)CCN([C@@H](C)c2ccccc2)C(=O)O1 (single isomer, unassigned) [EXAMPLE 113 Isomer 1] has measured inhibition at 0.1111 µM not below 60%. Thanks! 1

Could you tell me if the measured inhibition at 0.1111 µM of CC1(c2ccccc2)CCN(c2nc(-c3ccccc3)cs2)C(=O)O1 (stereo not drawn) reaches 60% or more? 0

Test whether the compound CC1(c2ccccc2)CCN(c2nccc(-c3cccc(Cl)c3)n2)C(=O)O1 (stereo not drawn) records inhibition at 0.1111 µM of 60% or higher. 0

Test whether the compound NCCC1(c2ccccc2)CCN(c2cccc(-c3ccc(F)cc3F)c2)C(=O)O1 (stereo not drawn) records inhibition at 0.1111 µM of 60% or higher. 0

Quick check, inhibition at 0.1111 µM >= 60%? CC1(c2ccccc2)CCN(c2cccc(-c3cccc(CO)c3)c2)C(=O)O1 (stereo not drawn) 0

Check the entry CC1(c2ccccc2)CCN(c2nccc(-c3ccc(F)cc3)n2)C(=O)O1 (stereo not drawn) : does inhibition at 0.1111 µM equal or exceed 60%? 0

====

# TESTED SYSTEM: 11β-HSD1 (Homo sapiens)
# ASSAY PROCEDURE: biochemical
# TEST CONDITIONS: read-out: Average % inhibition at 100 nM, Biological Test Example 1; 100 nM
Please enter met where inhibition at 0.1 µM is greater than or equal to 90%, and not met where it is lower.

{"MOLECULE": "C[C@@H](c1ccc(OC(F)F)cc1)N1CC[C@](CCO)(c2ccccc2)OC1=O", "CLASS ASSIGNMENT": "met"}
{"MOLECULE": "COc1ccc([C@H](C)N2CC[C@](CCC(C)(C)O)(c3ccc(F)cc3)OC2=O)cc1", "CLASS ASSIGNMENT": "not met"}
{"MOLECULE": "C[C@@H](c1ccc(Cl)cc1F)N1CC[C@](CC(C)(C)C(N)=O)(c2ccc(F)cc2)OC1=O", "CLASS ASSIGNMENT": "met"}
{"MOLECULE": "C=CCC1(c2ccc(F)cc2)CCN(Cc2cc(Cl)ccc2Cl)C(=O)O1 (stereo not drawn)", "CLASS ASSIGNMENT": "not met"}

Here is the next item to consider.
Does Cc1ccc([C@H](C)N2CC[C@](CC(C)(C)O)(c3ccccc3)OC2=O)cc1 have a reported inhibition at 0.1 µM of at least 90%? met

====

molecules and their reported Average % inhibition at 100 nM
# TESTED SYSTEM: 11β-HSD1 (Homo sapiens)
# TEST CONDITIONS: Biological Test Example 1; 100 nM; 0.1 µM
Your answer should be a number followed by the unit of measure.

Example molecules with recorded Average % inhibition at 100 nM:
{"MOLECULE": "COc1ccc([C@H](C)N2CCC(CCC(N)=O)(C(C)C)OC2=O)cc1 (single isomer, unassigned) [EXAMPLE 333 Isomer 2]", "RESULT": "9.1%"}
{"MOLECULE": "CC(CO)C[C@]1(c2ccc(F)cc2)CCN([C@@H](C)c2ccc(Br)cc2)C(=O)O1 (single isomer, unassigned) [EXAMPLE 577 Isomer 2]", "RESULT": "94.7%"}
{"MOLECULE": "C[C@@H](c1ccc(Br)cc1)N1CCC(CCO)(c2ccc(F)cc2F)OC1=O (single isomer, unassigned) [EXAMPLE 365 Isomer 1]", "RESULT": "97.5%"}

From here, focus on the item given below.
Read the entry CC(C[C@]1(c2ccc(F)cc2)CCN([C@@H](C)c2ccc(Br)cc2)C(=O)O1)C(N)=O (single isomer, unassigned) [EXAMPLE 523 Isomer 2] and write its reported Average % inhibition at 100 nM. 85.4%

====

# TESTED SYSTEM: 11β-HSD1 (Homo sapiens)
# ASSAY PROCEDURE: biochemical
# TEST CONDITIONS: IC50 Range, Biological Test Example 1; microsomes from CHO cells overexpressing human 11β-HSD1
pIC50: −log10 of the molar value.
MEASURE: pIC50

{"COMPOUND": "CNC(=O)c1cccc(-c2cccc(N3CCC(C)(c4ccccc4)OC3=O)c2)c1 (centres unmarked)", "pIC50": "6.00 to 7.00"}
{"COMPOUND": "Cc1ccc(C2(C)CCN([C@@H](C)c3ccccc3)C(=O)O2)cc1 (some centres unmarked) [EXAMPLE 88]", "pIC50": "> 7.00"}
{"COMPOUND": "CC1(c2ccccc2)CCN(c2cccc(-c3ccc(S(C)(=O)=O)cc3)c2)C(=O)O1 (centres unmarked)", "pIC50": "6.00 to 7.00"}

Please list pIC50 recorded for the compound C[C@@H](c1ccc(F)cc1)N1CC[C@](CCCNS(C)(=O)=O)(c2ccc(F)cc2)OC1=O > 7.00

Retrieve pIC50 measured for C[C@@H](c1ccc(Br)cc1)N1CC[C@](CCC(=O)O)(c2ccc(F)cc2)OC1=O and print it. > 7.00
